Assay: Single dose PK profile (plasma and tumor) in Colon26 tumor bearing mice
Assay type: in vivo
Settings: female, mouse, po, 25 mg/kg; plasma; 25 mpk p.o.
Listing of recorded AUC(0-inf) by entry.

{"columns": ["STRUCTURE", "AUC(0-inf), ng·h/mL"],
 "data": [
  ["CNS(=O)(=O)Nc1cccc(Cc2c(CN(C)C)c3ccc(OC(=O)N(C)C)cc3oc2=O)c1F", 4400],
  ["CNS(=O)(=O)Nc1cccc(Cc2c(CN3CCC3)c3ccc(OC(=O)N(C)C)cc3oc2=O)c1F", 3650]
]}

----------
System: A549 pERK
Test: A549-pERK, 2 h (quantitative Western, Jess)
Assay type: cell-based
Conditions: Homo sapiens, A549, 2 h, 10 nM, phospho:total ratio normalized to DMSO control
Listing of recorded activity at 0.01 µM by entry.

{"columns": ["COMPOUND", "activity at 0.01 µM (%)"],
 "data": [
  ["CCCN(C)Cc1c(Cc2cccc(NS(=O)(=O)NC)c2F)c(=O)oc2cc(OC(=O)N(C)C)ccc12 [Compound 81]", 57.6],
  ["CNS(=O)(=O)Nc1cccc(Cc2c(CNc3ccc(OC)nc3)c3ccc(OC(=O)N(C)C)cc3oc2=O)c1F [Compound 193]", 90.7],
  ["CNS(=O)(=O)Nc1cccc(Cc2c(CC(=O)N3CCN(C)CC3)c3ccc(OC(=O)N(C)C)cc3oc2=O)c1F [Compound 195]", 113],
  ["CNS(=O)(=O)Nc1cccc(Cc2c(CNCC(=O)N(C)c3ccccc3)c3ccc(OC(=O)N(C)C)cc3oc2=O)c1F [Compound 220]", 109],
  ["CNS(=O)(=O)Nc1nccc(Cc2c(C)c3cc(C)c(OC(=O)N(C)C)cc3oc2=O)c1F [Compound 110]", 5.92],
  ["CNS(=O)(=O)Nc1cccc(Cc2c(CNc3ccnn3C)c3ccc(OC(=O)N(C)C)cc3oc2=O)c1F [Compound 96]", 102],
  ["C#CCNC(=O)CNCc1c(Cc2cccc(NS(=O)(=O)NC)c2F)c(=O)oc2cc(OC(=O)N(C)C)ccc12 [Compound 218]", 113]
]}

----------
Listing of recorded 2C8* by entry.
Biological target: CYP450 2C8 (Homo sapiens)
Test: CYP450 panel, 2C8
Conditions: 10 μM; substrate amodiaquine
PROPERTY: 2C8*

{"columns": ["STRUCTURE", "ASSAY_SYSTEM", "PROPERTY", "VALUE_OBSERVED"],
 "data": [
  ["CNS(=O)(=O)Nc1cccc(Cc2c(CN3CCN(C)CC3)c3ccc(OC(=O)N(C)C)cc3oc2=O)c1F", "CYP450 2C8 (Homo sapiens)", "2C8*", "−16.9"],
  ["CNS(=O)(=O)Nc1cccc(Cc2c(CNC3CC3)c3ccc(OC(=O)N(C)C)cc3oc2=O)c1F", "CYP450 2C8 (Homo sapiens)", "2C8*", 0.8],
  ["CNS(=O)(=O)Nc1cccc(Cc2c(CN3CCN(Cc4ccccc4)CC3)c3ccc(OC(=O)N(C)C)cc3oc2=O)c1F", "CYP450 2C8 (Homo sapiens)", "2C8*", 45.5],
  ["O=c1c(O)c(-c2ccc(O)c(O)c2)oc2cc(O)cc(O)c12", "CYP450 2C8 (Homo sapiens)", "2C8*", 93.1]
]}

----------
Assay: Plasma stability, human
Assay type: in vitro ADME
Details: 2 μM

{"columns": ["COMPOUND", "Human (% Reamining @2 hour)"],
 "data": [
  ["CNS(=O)(=O)Nc1nccc(Cc2c(C)c3ccc(Oc4ncccn4)cc3oc2=O)c1F [Reference 2, reference compound]", "91.1%"],
  ["CC[C@H](C)C(=O)O[C@H]1C[C@@H](C)C=C2C=C[C@H](C)[C@H](CC[C@@H]3C[C@@H](O)CC(=O)O3)[C@H]21", "81.8%"],
  ["CNS(=O)(=O)Nc1cccc(Cc2c(CN(C)C)c3ccc(OC(=O)N(C)C)cc3oc2=O)c1F", "95.1%"],
  ["Cn1cnc2c(F)c(Nc3ccc(Br)cc3Cl)c(C(=O)NOCCO)cc21 [Reference 1, Selumetinib, reference compound]", "98.1%"]
]}

----------
Target: CYP450 2C19 (Homo sapiens)
Sequence (P33261 whole entry): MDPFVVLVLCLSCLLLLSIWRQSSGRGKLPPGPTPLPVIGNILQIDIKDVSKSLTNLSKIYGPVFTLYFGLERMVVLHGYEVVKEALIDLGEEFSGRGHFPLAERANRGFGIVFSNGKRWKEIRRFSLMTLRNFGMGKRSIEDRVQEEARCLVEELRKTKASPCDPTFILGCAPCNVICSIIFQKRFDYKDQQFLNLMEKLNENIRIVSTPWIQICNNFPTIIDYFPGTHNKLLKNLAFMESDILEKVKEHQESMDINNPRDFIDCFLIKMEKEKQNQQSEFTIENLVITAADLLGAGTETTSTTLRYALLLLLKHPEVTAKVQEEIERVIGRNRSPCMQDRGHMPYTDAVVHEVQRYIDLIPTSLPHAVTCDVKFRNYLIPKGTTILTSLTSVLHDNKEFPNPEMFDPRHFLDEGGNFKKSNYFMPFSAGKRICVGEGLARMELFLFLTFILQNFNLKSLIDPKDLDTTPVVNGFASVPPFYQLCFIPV
Test: CYP450 panel, 2C19
Details: 10 μM; substrate mephenytoin
Listing of recorded 2C19* by entry.

{"columns": ["COMPOUND", "2C19*"],
 "data": [
  ["COc1ccc2[nH]c([S+]([O-])Cc3ncc(C)c(OC)c3C)nc2c1 (centres unmarked)", 61.6],
  ["CNS(=O)(=O)Nc1cccc(Cc2c(CNC3CC3)c3ccc(OC(=O)N(C)C)cc3oc2=O)c1F", 9.7],
  ["CNS(=O)(=O)Nc1cccc(Cc2c(CN3CCN(Cc4ccccc4)CC3)c3ccc(OC(=O)N(C)C)cc3oc2=O)c1F", 88.4],
  ["CNS(=O)(=O)Nc1cccc(Cc2c(CN3CCN(C)CC3)c3ccc(OC(=O)N(C)C)cc3oc2=O)c1F", 4.3],
  ["CNS(=O)(=O)Nc1cccc(Cc2c(CNc3ccn[nH]3)c3ccc(OC(=O)N(C)C)cc3oc2=O)c1F", 16.0]
]}

----------
Test: Microsome stability, CD-1 mouse
Conditions: microsomes, 2 μM
Listing of recorded CD-1 Mouse (% Reamining @1 hour) by entry.

{"columns": ["COMPOUND", "CD-1 Mouse (% Reamining @1 hour) (%)"],
 "data": [
  ["Cn1cnc2c(F)c(Nc3ccc(Br)cc3Cl)c(C(=O)NOCCO)cc21 [Reference 1, Selumetinib, reference compound]", 13.9],
  ["CNS(=O)(=O)Nc1cccc(Cc2c(CNc3ccn[nH]3)c3ccc(OC(=O)N(C)C)cc3oc2=O)c1F [Compound 12]", 28.2],
  ["CNS(=O)(=O)Nc1cccc(Cc2c(CN3CCN(C)CC3)c3ccc(OC(=O)N(C)C)cc3oc2=O)c1F [Compound 15]", 77.6],
  ["CNS(=O)(=O)Nc1cccc(Cc2c(C)c3ccc(OC(=O)N(C)C)cc3oc2=O)c1F [Compound 7]", 29.6],
  ["CNS(=O)(=O)Nc1cccc(Cc2c(CNCC#N)c3ccc(OC(=O)N(C)C)cc3oc2=O)c1F [Compound 13]", 16.8],
  ["CNS(=O)(=O)Nc1cccc(Cc2c(CN(C)C)c3ccc(OC(=O)N(C)C)cc3oc2=O)c1F [Compound 9]", 54.3],
  ["CNS(=O)(=O)Nc1cccc(Cc2c(CN3CCNCC3)c3ccc(OC(=O)N(C)C)cc3oc2=O)c1F [Compound 10]", 91.3],
  ["C#CCNCc1c(Cc2cccc(NS(=O)(=O)NC)c2F)c(=O)oc2cc(OC(=O)N(C)C)ccc12 [Compound 14]", 13.2],
  ["CNS(=O)(=O)Nc1cccc(Cc2c(CNC3CC3)c3ccc(OC(=O)N(C)C)cc3oc2=O)c1F [Compound 11]", 7.0],
  ["CNS(=O)(=O)Nc1cccc(Cc2c(CN3CCN(Cc4ccccc4)CC3)c3ccc(OC(=O)N(C)C)cc3oc2=O)c1F [Compound 16]", 0.6],
  ["CNS(=O)(=O)Nc1nccc(Cc2c(C)c3ccc(Oc4ncccn4)cc3oc2=O)c1F [Reference 2, reference compound]", 96.0]
]}

----------
Assay: Pharmacokinetics, single dose, 2-hour tissue levels in Colon26 tumor bearing mice
Type: in vivo
Conditions: female, athymic BALB/c nude or BALB/c, mouse, muscle, po; single dose 100 mg/kg p.o.; 2-hour post dose; read-out: Muscle
Procedure: Female mice (either athymic BALC/c nude, or BALB/c mice) were inoculated with a single subcutaneous injection of 0.2 ml of mouse Colon-26 cell suspension (1×10^5 cells per animal) in the inguinal region. Colon26 (C26) tumor bearing mice received a single dose (3 mice/treatment) of vehicle (10% DMSO/90% [20% SBE-β-CD in saline], pH 5) containing compounds at 100 mg/kg by gavage (p.o.) and 2-hour post dose humanely euthanized. […]
Listing of recorded concentration at 2 h by entry.

{"columns": ["COMPOUND", "concentration at 2 h"],
 "data": [
  ["CNS(=O)(=O)Nc1cccc(Cc2c(CN(C)C)c3ccc(OC(=O)N(C)C)cc3oc2=O)c1F [Compound 9]", "363 ng/g"],
  ["C#CCNCc1c(Cc2cccc(NS(=O)(=O)NC)c2F)c(=O)oc2cc(OC(=O)N(C)C)ccc12 [Compound 14]", "19 ng/g"],
  ["CNS(=O)(=O)Nc1nccc(Cc2c(C)c3ccc(Oc4ncccn4)cc3oc2=O)c1F [Reference 2, reference compound]", "550 ng/g"]
]}

----------
Target: CYP450 2C8 (Homo sapiens, UniProt P10632)
Sequence (P10632 whole entry): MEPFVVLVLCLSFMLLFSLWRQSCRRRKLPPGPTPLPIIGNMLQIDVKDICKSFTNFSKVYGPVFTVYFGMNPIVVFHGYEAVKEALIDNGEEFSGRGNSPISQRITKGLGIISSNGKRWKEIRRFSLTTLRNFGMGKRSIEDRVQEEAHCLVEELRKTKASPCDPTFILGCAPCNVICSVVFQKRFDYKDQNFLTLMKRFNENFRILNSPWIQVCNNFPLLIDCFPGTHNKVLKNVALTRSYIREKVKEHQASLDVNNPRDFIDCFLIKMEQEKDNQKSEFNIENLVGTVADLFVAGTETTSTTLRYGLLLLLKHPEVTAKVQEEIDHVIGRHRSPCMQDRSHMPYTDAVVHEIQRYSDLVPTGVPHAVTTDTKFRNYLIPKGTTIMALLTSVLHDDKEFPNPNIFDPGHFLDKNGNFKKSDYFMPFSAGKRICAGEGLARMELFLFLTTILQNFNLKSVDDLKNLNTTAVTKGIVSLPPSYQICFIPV
Assay: CYP450 panel, 2C8
Settings: 10 μM; substrate amodiaquine
API: label(entry) gives met if the entry's 2C8* is strictly smaller than 8; on equality or larger values it gives not met.

{"columns": ["MOLECULE", "ASSAY_SYSTEM", "CLASS"],
 "data": [
  ["CNS(=O)(=O)Nc1cccc(Cc2c(C)c3ccc(OC(=O)N(C)C)cc3oc2=O)c1F", "CYP450 2C8 (Homo sapiens, UniProt P10632)", "not met"],
  ["CNS(=O)(=O)Nc1cccc(Cc2c(CN(C)C)c3ccc(OC(=O)N(C)C)cc3oc2=O)c1F", "CYP450 2C8 (Homo sapiens, UniProt P10632)", "met"],
  ["CNS(=O)(=O)Nc1cccc(Cc2c(CNc3ccn[nH]3)c3ccc(OC(=O)N(C)C)cc3oc2=O)c1F", "CYP450 2C8 (Homo sapiens, UniProt P10632)", "met"],
  ["Cn1cnc2c(F)c(Nc3ccc(Br)cc3Cl)c(C(=O)NOCCO)cc21 [Reference 1, Selumetinib, reference compound]", "CYP450 2C8 (Homo sapiens, UniProt P10632)", "not met"],
  ["CNS(=O)(=O)Nc1cccc(Cc2c(CNCC#N)c3ccc(OC(=O)N(C)C)cc3oc2=O)c1F", "CYP450 2C8 (Homo sapiens, UniProt P10632)", "met"],
  ["CNS(=O)(=O)Nc1cccc(Cc2c(CN3CCNCC3)c3ccc(OC(=O)N(C)C)cc3oc2=O)c1F", "CYP450 2C8 (Homo sapiens, UniProt P10632)", "met"],
  ["C#CCNCc1c(Cc2cccc(NS(=O)(=O)NC)c2F)c(=O)oc2cc(OC(=O)N(C)C)ccc12", "CYP450 2C8 (Homo sapiens, UniProt P10632)", "not met"]
]}

Attribution: patent US20250270180A1
